assay-target: Neutrophil collagenase (Homo sapiens, UniProt P22894)
Sequence (P22894 whole entry): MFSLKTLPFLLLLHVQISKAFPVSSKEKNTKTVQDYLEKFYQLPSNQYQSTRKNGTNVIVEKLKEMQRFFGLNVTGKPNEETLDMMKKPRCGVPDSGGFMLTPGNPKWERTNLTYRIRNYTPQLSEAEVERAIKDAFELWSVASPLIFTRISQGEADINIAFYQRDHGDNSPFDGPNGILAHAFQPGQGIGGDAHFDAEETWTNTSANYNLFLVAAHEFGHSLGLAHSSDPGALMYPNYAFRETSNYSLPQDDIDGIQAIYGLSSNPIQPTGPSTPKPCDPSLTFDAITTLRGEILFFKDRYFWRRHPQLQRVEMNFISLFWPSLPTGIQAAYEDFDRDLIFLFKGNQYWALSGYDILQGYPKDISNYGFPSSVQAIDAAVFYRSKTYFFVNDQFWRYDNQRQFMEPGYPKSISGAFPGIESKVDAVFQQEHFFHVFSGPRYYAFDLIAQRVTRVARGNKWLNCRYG
assay-explanation: Inhibition of human active MMP8 using (7-methoxycoumarin-4-yl)acetyl-Pro-Leu-Gly-Leu-(3-(2,4-dinitrophenyl)-L-2,3-diamino-propionyl)Ala-Arg-NH2 as substrate preincubated for 30 mins followed by substrate addition and measured for 10 mins by fluorescence assay
measurement-setup: read-out: IC50
measured-parameter: IC50
Remember to put the unit after the number in your answer.

Known results for molecules:
O=C1NC(=O)C(CCCCCCCC(F)(F)F)(Cc2ccccc2)C(=O)N1    229 nM
COc1ccc(CC2(CCCCCCCC(F)(F)F)C(=O)NC(=O)NC2=O)cc1    187 nM
COc1ccc(CC2(CCCCCCCC(C)C)C(=O)NC(=O)NC2=O)cc1    281 nM
CCCCCCCCC1(Cc2ccccc2)C(=O)NC(=O)NC1=O    157 nM
O=C1NC(=O)C(CCCCCCC(F)CF)(Cc2ccccc2)C(=O)N1 (stereo unspecified)    125 nM

Measured IC50, O=C1NC(=O)C(CCCCCCCC(F)CF)(Cc2ccccc2)C(=O)N1 (stereo unspecified) : 180 nM

Item: CCCCCCCCCC1(Cc2ccccc2)C(=O)NC(=O)NC1=O | IC50: 96 nM

Value of IC50 reported for the molecule COc1ccc(CC2(CCCCCCC(F)CF)C(=O)NC(=O)NC2=O)cc1 (stereo unspecified) is 165 nM

Per the record, CCCCCCCCC1(Cc2ccc(OC)cc2)C(=O)NC(=O)NC1=O has IC50 of 73 nM

Value of measured IC50 for the entry CCCCCCCCCC1(Cc2ccc(OC)cc2)C(=O)NC(=O)NC1=O : 84 nM

Please fill in: IC50 reported for COc1ccc(CC2(CCCCCCCC(F)CF)C(=O)NC(=O)NC2=O)cc1 (racemic) = 110 nM
